// data source = patent US20030186281A1

Tested on: tet operator sequence
Test: β-galactosidase activity of a tetracycline-regulated promoter in transformed E. coli with revTetR, in the presence and absence of anhydrotetracycline (atc)
Assay type: cell-based, Escherichia coli
Settings: RevTetR isolate cultured in the presence of anhydrotetracycline (ATC)
Protocol: The relative activity of revTetR repressors was determined at 28° C. and 37° C. for each clone by measuring β-galactosidase activity of a tetracycline-regulated promoter in transformed Escherichia coli in the presence and absence of the tetracycline analog, anhydrotetracycline (atc). The relative β-galactosidase activity was measured in standard Miller units and is presented as the percent of maximal expression as measured in the absence of Tet repressor. […]
property name: β-Galactosidase Activity, Cultured With ATC
Form: value (number only, do not type unit).

Inquiry: Report β-Galactosidase Activity, Cultured With ATC for TetRrev96/99-8: revTetR(BD) G96N V99H (protein, Modified tetracycline repressor, revTetR(BD) G96N V99H) MSRLDKSKVINSALELLNEVGIEGLTTRKLAQKLGVEQPTLYWHVKNKRALLDALAVEILARHHDYSLPAAGESWQSFLRNNAMSFRRALLRYRDNAKHHLGTRPDEKQYDTVETQLRFMTENGFSLRDGLYAISAVSHFTLGAVLEQQEHTAALTDRPAAPDENLPPLLREALQIMDSDDGEQAFLHGLESLIRGFEVQLTALLQIV
Reply text: 24.309

Inquiry: // fetch β-Galactosidase Activity, Cultured With ATC given entry TetRrev4/6-4: revTetR(BD) D95A V99G V57V A61G (protein, Modified tetracycline repressor, revTetR(BD) D95A V99G V57V A61G) MSRLDKSKVINSALELLNEVGIEGLTTRKLAQKLGVEQPTLYWHVKNKRALLDALAVEILGRHHDYSLPAAGESWQSFLRNNAMSFRRALLRYRAGAKGHLGTRPDEKQYDTVETQLRFMTENGFSLRDGLYAISAVSHFTLGAVLEQQEHTAALTDRPAAPDENLPPLLREALQIMDSDDGEQAFLHGLESLIRGFEVQLTALLQIV
Reply text: 1.639
